Can you tell me Potency for the items I'm about to list?
target: Glucocorticoid receptor (Homo sapiens); test: GR-GFP Redistribution (AID 450); conditions: U2OS GR-GFP nuclear translocation, laser cytometry, 2 h; also: potency is read from the fitted curve at half-maximal effect
Calls of active or inactive are those of the source.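 The calls were made as follows: active = compounds whose dose series gives a full or clear partial fitted curve of increased nuclear translocation; inconclusive = weak partial curve or effect only at the top dose; inactive = no dose-dependent translocation response.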

Look up Potency: C[C@@H](CNC(N)=O)NC(N)=O > 46 µM (inactive)

Look up Potency: Cn1c(Sc2ccc(-c3cccnc3)n2C)ccc1-c1cccnc1 > 46 µM (inactive)

Look up Potency: CN(Cc1cc(C(C)(C)C)cc(Br)c1O)Cc1cc(C(C)(C)C)cc(Br)c1O > 46 µM (inactive)

Look up Potency: Cn1c(C[C@@H](O)c2nc3ccccc3n2C)nc2ccccc21 > 46 µM (inactive)

Look up Potency: O=C(O)c1ccc2c(c1C(=O)O)C(=O)OC2(c1ccc(O)cc1)c1ccc(O)cc1 > 46 µM (inactive)

Look up Potency: C/C(=N/S(=O)(=O)c1ccc(Cl)c(Cl)c1)OCC(C)(C)C > 46 µM (inactive)

Look up Potency: COc1cc2nc(N(C)CCCNC(=O)[C@@H]3CCCO3)nc(N)c2cc1OC > 20.6 µM (inactive)

---

target: Cytochrome P450 1A2 (Homo sapiens); test: p450-cyp1a2 (AID 410); details: recombinant CYP1A2, luciferin-ME demethylation, luminescence; series mostly up to 11.4 µM
Inconclusive results are not listed. Active and inactive are the calls of the source. Calls come from the whole dose curve.
Can you answer with just one of these options? t (active), f (inactive)

What is the recorded call for this compound in the test? CC(=O)C=NCC(=O)O f

What is the recorded call for this compound in the test? CC[C@](N)(C(=O)O)C(C)C f

What is the recorded call for this compound in the test? C[C@@]1(CCOCc2ccccc2)NC(=O)NC1=O f

What is the recorded call for this compound in the test? CN1CCCC[C@@H]1CCN1CCCCC1 t

What is the recorded call for this compound in the test? CCC(=O)OCN1C(=O)C=CC1=O t

What is the recorded call for this compound in the test? CO[C@@H]1/C=C\O[C@]2(C)Oc3c(C)c(O)c4c(O)c(cc(O)c4c3C2=O)NC(=O)/C(C)=C\C=C/[C@H](C)[C@@H](O)[C@H](C)[C@H](O)[C@H](C)[C@H](OC(C)=O)[C@@H]1C f

What is the recorded call for this compound in the test? Cn1c(=O)c2[nH]c(CCCc3ccc([N+](=O)[O-])cc3)nc2n(C)c1=O f

What is the recorded call for this compound in the test? COc1c2c(nc3ccccc13)O[C@@H]([C@@](C)(O)CO)C2 t

What is the recorded call for this compound in the test? Nc1ccccc1SCc1csc(-c2ccc(Cl)cc2)n1 t

What is the recorded call for this compound in the test? Nc1nc(Cl)nc2c1ncn2[C@@H]1O[C@@H](CO)[C@@H](O)[C@H]1O f

What is the recorded call for this compound in the test? O=C1Oc2ccccc2C(=O)/C1=C\N1C(=O)N/C(=C\c2ccccc2O)C1=O t

What is the recorded call for this compound in the test? COc1ccc(/C=C(\C#N)C(N)=O)c(OC)c1 t

What is the recorded call for this compound in the test? COc1ccc2nccc(SCC(=O)O)c2c1 t

What is the recorded call for this compound in the test? COc1ccccc1CCn1c(=O)c(-c2ccc(F)cc2)nc2cncnc21 t

What is the recorded call for this compound in the test? Oc1ccc2ccccc2c1CN(Cc1c(O)ccc2ccccc12)C1CCCCC1 t

What is the recorded call for this compound in the test? N[C@@H](CSCc1ccccc1)C(=O)O f

What is the recorded call for this compound in the test? NNC(=O)c1ccc[n+](CCc2ccccc2)c1 f

What is the recorded call for this compound in the test? O=C(CSc1nc2ccccc2c2ccccc12)c1ccccc1 t

What is the recorded call for this compound in the test? Cc1ccc(NC(=O)c2ccccc2C(=O)O)cc1C t

What is the recorded call for this compound in the test? N#CCCn1c(=O)c(-c2cccc(C#N)c2)nc2cnc(Oc3ccccc3)nc21 t

What is the recorded call for this compound in the test? COc1cccc(Cn2c(=O)c(C)nc3cnc(Oc4cccc(Cl)c4)nc32)c1 t

What is the recorded call for this compound in the test? Nc1cccc2cc(S(=O)(=O)Nc3ccc(C(=O)O)cc3)ccc12 f

What is the recorded call for this compound in the test? Oc1cccnc1CN1CCCCC1 f

What is the recorded call for this compound in the test? COc1c(NC(C)=O)c2ccccc2c2ccccc12 t

What is the recorded call for this compound in the test? Clc1ccc(Cl)c(Nc2ccnc(SCc3ccccc3)n2)c1 t

What is the recorded call for this compound in the test? COc1cc2c3cc1Oc1c(OC)c(OC)cc4c1[C@@H](Cc1ccc(O)c(c1)Oc1ccc(cc1)C[C@@H]3N(C)CC2)CN(C)C4 f

What is the recorded call for this compound in the test? OCCSCc1ccccc1 f

What is the recorded call for this compound in the test? O=c1[nH]c(=O)n([C@H]2C[C@H](O)[C@H](CO)O2)cc1Br f
